# System: foxtail, giant (giant foxtail, Setaria faberii)
# procedure details: Test C preemergence
# Assay type: in vivo
# reported conditions: 62 g ai/ha, scale 0 to 100, 0 no effect, 100 complete control
value type: Plant response rating, Foxtail, Giant
Note: the reply should be a number with no unit written.

Known Plant response rating, Foxtail, Giant results, listed for orientation:
molecule | observed measurement
CN1CC(c2ccc(C(F)(F)F)cc2)C(C(=S)Nc2ccccc2F)C1=O (stereo not drawn) | 90
CN1CC(c2ccc(F)c(C(F)(F)F)c2)C(C(=O)Nc2cccc(F)c2F)C1=O (stereo not drawn) | 95

# input Given the molecule Cc1ccc(C2CN(C)C(=O)C2C(=O)Nc2cccc(F)c2F)cc1 (stereo not drawn) , write its reported Plant response rating, Foxtail, Giant.
# output 95

# input Tell me Plant response rating, Foxtail, Giant reported for CN1CC(c2cccc(C(F)(F)F)c2)C(C(=O)Nc2ccccc2S(C)(=O)=O)C1=O (stereo not drawn)
# output 90

# input Kindly indicate its recorded Plant response rating, Foxtail, Giant. Item: CN1CC(c2ccc(C(C)(F)F)cc2)C(C(=O)Nc2ccccc2F)C1=O (stereo not drawn)
# output 98

# input Could you please provide reported Plant response rating, Foxtail, Giant for CN1CC(c2cccc(C(F)(F)F)c2)C(C(=O)Nc2cccc(F)c2F)C1=O (stereo not drawn) ? Thanks!
# output 90

====

# Test system: corn (Zea mays)
# procedure details: Test A postemergence
# Type: in vivo
# reported conditions: Zea mays, post-emergence, 240 h, Postemergence, 500 g ai/ha; visual injury, 0 to 100 scale (0 no effect, 100 complete control), approx. 10 d
value type: Corn plant response rating (crop injury, 0 = no effect, 100 = complete kill) at 500 g/ha
Remember to quote the unit after the number.

Some compounds with recorded Corn plant response rating (crop injury, 0 = no effect, 100 = complete kill) at 500 g/ha:
compound | measured on | observed measurement
CN1C[C@H](c2ccc(OC(F)F)cc2)[C@@H](C(=O)Nc2ccccc2F)C1=O [Compound 1371] | corn (Zea mays) | 90%
Cc1c(F)cccc1NC(=O)[C@H]1C(=O)N(C)C[C@@H]1c1ccc(C(F)(F)F)cc1 [Compound 1386] | corn (Zea mays) | 80%
COc1cc([C@H]2CN(C)C(=O)[C@@H]2C(=O)Nc2cccc(F)c2F)ccc1F [Compound 1299] | corn (Zea mays) | 80%

Please look at the following compound next.
# input Tell me measured Corn plant response rating (crop injury, 0 = no effect, 100 = complete kill) at 500 g/ha for CN1C[C@H](c2cccc(C(C)(F)F)c2)[C@@H](C(=O)Nc2ccccc2F)C1=O [Compound 1317] please.
# output 80%

====

# Tested on: barnyardgrass (Echinochloa crus-galli)
# procedure details: Test B flooded paddy test
# Type: in vivo
# reported conditions: Flood, 500 g ai/ha; 0 to 100 scale where 0 is no effect and 100 is complete control; 13 to 15 d
value type: Plant response rating, Barnyardgrass

Check out these entries, answers already filled in.
molecule | Plant response rating, Barnyardgrass
Cc1cc(NC(=O)C2C(=O)NCC2c2cccc(OC(F)F)c2)ccc1F (stereo not shown) | 0
O=C1NCC(c2ccc(I)cc2)C1C(=O)Nc1ccc(F)cc1F (racemic) | 65
Cc1ccc(F)c(NC(=O)C2C(=O)NCC2c2cccc(OC(F)F)c2)c1 (stereo not shown) | 0
COc1ccc(NC(=O)C2C(=O)NCC2c2ccc(F)c(F)c2)cc1F (stereo not shown) | 0
COc1c(F)ccc(NC(=O)C2C(=O)NCC2c2ccc(F)c(F)c2)c1F (stereo not shown) | 40

# input Give the observed Plant response rating, Barnyardgrass of O=C1NCC(c2ccc(Oc3ccccc3)cc2)C1C(=O)Nc1ccccc1Cl (racemic) for barnyardgrass (Echinochloa crus-galli).
# output 0

# input Enter Plant response rating, Barnyardgrass (test system barnyardgrass (Echinochloa crus-galli)) for O=C1NCC(c2cccc(OCC(F)F)c2)C1C(=O)Nc1ccc(F)c(F)c1F (stereo not shown)
# output 60

====

Property: pest or weed control at 250 g/ha; scope: individual compounds
# System: redroot pigweed (Amaranthus retroflexus)
# procedure details: Test G Pre-Emergence Protocol
# Format: in vivo
# reported conditions: Amaranthus retroflexus, pre-emergence, 312 h, 250 g ai/ha, evaluated after 13 days, read-out: Pigweed, Redroot damage rating (100=total damage to plant; 0=no damage to plant)
Only the number, expressed in %, is required.

A selection of reference data follows.
compound | units | pest or weed control at 250 g/ha
CN1C[C@@H](c2ccc(C(F)(F)F)cc2)[C@H](C(=O)Nc2ccc(Cl)nn2)C1=O (racemic) [Compound 1561] | % | 30
CN1C[C@H](c2cc(Cl)cc(C(F)(F)F)c2)[C@@H](C(=O)Nc2ccccc2S(C)(=O)=O)C1=O (racemic) [Compound 1797] | % | 60
CN1C[C@H](c2ccc(C(F)(F)F)cc2)[C@@H](C(=O)Nc2ccc(C(F)(F)F)cc2F)C1=O (racemic) [Compound 1426] | % | 0
CN1C[C@@H](c2ccc(C(F)(F)F)cc2)[C@H](C(=O)Nc2n[nH]c(C(F)(F)F)n2)C1=O (racemic) [Compound 1540] | % | 40
CCOc1ccc([C@@H]2CN(C)C(=O)[C@H]2C(=O)Nc2cccc(F)c2C)cc1Cl (racemic) [Compound 1803] | % | 40

# input Specify pest or weed control at 250 g/ha for CN1C[C@@H](c2ccc(C(F)(F)F)cc2)[C@H](C(=O)Nc2sccc2C#N)C1=O (racemic) [Compound 1520] , system redroot pigweed (Amaranthus retroflexus).
# output 30

# input Report value only: pest or weed control at 250 g/ha, redroot pigweed (Amaranthus retroflexus), Cc1onc(NC(=O)[C@@H]2C(=O)N(C)C[C@H]2c2ccc(C(F)(F)F)cc2)c1Cl (racemic) [Compound 1580]
# output 0

====

# Tested on: ryegrass, Italian (Italian ryegrass, Lolium multiflorum)
# procedure details: Test C preemergence
# Assay type: in vivo
# reported conditions: 31 g ai/ha, 0 is no effect, 100 is complete control
Lab note: anything with Plant response rating (scale of 0 to 100), Ryegrass, Italian at or over 20 counts as yes; the rest go in no.

Examples from the recorded data:
compound | qualitative label
CN1CC(c2cccc(C(F)(F)F)c2)C(C(=O)Nc2cccc(F)c2F)C1=O (stereo not shown) [Compound 636] | yes
O=C1NCC(c2cccc(OC(F)(F)C(F)F)c2)C1C(=O)Nc1ccccc1F (racemic) [Compound 695] | no
Cc1ccc(C2CN(C)C(=O)C2C(=O)Nc2cccc(F)c2F)cc1 (stereo not shown) [Compound 662] | yes
CN1CC(c2ccc(F)c(C(F)(F)F)c2)C(C(=O)Nc2cccc(F)c2F)C1=O (stereo not shown) [Compound 613] | no
CN1C[C@H](c2ccc(F)c(F)c2)[C@@H](C(=O)Nc2cccc(F)c2F)C1=O [Compound 639] | yes

# input Could you tell me if the measured Plant response rating (scale of 0 to 100), Ryegrass, Italian of CN1C[C@H](c2ccc(C(F)(F)F)cc2)[C@@H](C(=O)Nc2ccccc2F)C1=O [Compound 622] reaches 20 or more?
# output yes

# input Decide: Plant response rating (scale of 0 to 100), Ryegrass, Italian of CN1CC(c2cccc(C(F)(F)F)c2)C(C(=O)Nc2ccccc2S(C)(=O)=O)C1=O (stereo not shown) [Compound 637] >= 20?
# output yes

====

# Tested on: Kochia (Kochia scoparia)
# procedure details: Test A preemergence
# Format: in vivo
# reported conditions: Bassia scoparia, pre-emergence, 240 h, 125 g ai/ha, preemergence; 0 to 100 scale where 0 is no effect and 100 is complete control; approx. 10 d; read-out: Kochia plant response rating
Values of pest or weed control at 125 g/ha greater than or equal to 60% map to Condition met; values below map to Condition not met.

Here's what some known entries look like.
compound | qualitative label
CCc1cc(CC)cc([C@H]2CNC(=O)[C@@H]2C(=O)Nc2ccccc2F)c1 [Compound 1138] | Condition not met
O=C1NC[C@H](c2ccc(C(F)(F)F)cn2)[C@H]1C(=O)Nc1ccc(F)c(F)c1F [Compound 1105] | Condition met
CN1C[C@H](c2cc(C(F)F)cs2)[C@@H](C(=O)Nc2ccc(F)c(F)c2F)C1=O [Compound 1083] | Condition met

# input Please tell me: is the compound O=C1NC[C@H](c2cc(C(F)F)cs2)[C@H]1C(=O)Nc1cccc(F)c1F [Compound 1117] at or over 60% in terms of pest or weed control at 125 g/ha?
# output Condition not met

# input Does CN1C[C@H](c2cc(C(F)F)cs2)[C@@H](C(=O)Nc2ccccc2S(C)(=O)=O)C1=O [Compound 1084] have a reported pest or weed control at 125 g/ha of at least 60%?
# output Condition not met

====

# Test system: johnsongrass (Sorghum halepense)
# procedure details: Test C preemergence
# Format: in vivo
# reported conditions: 31 g ai/ha, 0 is no effect, 100 is complete control
value type: Plant response rating (scale of 0 to 100), Johnsongrass
The answer should be a number; do not append a unit.

Solved cases (4 shown):
molecule | measured on | observed measurement
Cc1cccc(C2CN(C)C(=O)C2C(=O)Nc2cccc(F)c2F)c1 (centres unmarked) [Compound 667] | johnsongrass (Sorghum halepense) | 70
CN1CC(c2ccc(F)c(C(F)(F)F)c2)C(C(=O)Nc2cccc(F)c2F)C1=O (centres unmarked) [Compound 613] | johnsongrass (Sorghum halepense) | 75
O=C1NCC(c2cccc(OC(F)(F)C(F)F)c2)C1C(=O)Nc1ccccc1F (racemic) [Compound 695] | johnsongrass (Sorghum halepense) | 40
CN1C[C@H](c2ccc(F)c(F)c2)[C@@H](C(=O)Nc2cccc(F)c2F)C1=O [Compound 639] | johnsongrass (Sorghum halepense) | 20

# input Supply Plant response rating (scale of 0 to 100), Johnsongrass value. Item: CN1C[C@H](c2ccc(C(F)(F)F)cc2)[C@@H](C(=O)Nc2ccccc2F)C1=O [Compound 622]
# output 25
